- Tested on: Pan T cells isolated from C57BL6 splenocytes
- PROCEDURE_TEXT: T cell function assays (IFNγ and TNFα in supernatants)
- Assay type: cell-based, mouse
- CONDITION_SUMMARY: 0.3 μM compound, 3 days, anti-CD3/CD28 stimulation
RESULT_TYPE: IFNγ [pg/mL] anti-CD3/CD28 (pg/mL)

>>> test_result("CC(C)CCCC1(N)CCc2cc(O)c(N3CC(=O)NS3(=O)=O)c(F)c2C1 (stereo not shown) [Compound 254]")
97.0
>>> test_result("CC(C)CCN[C@@H]1CCc2cc(O)c(N3CC(=O)NS3(=O)=O)c(F)c2C1 (single isomer, unassigned) [Compound 118]")
261.3
>>> test_result("CC(C)CCNC[C@@H]1Cc2cc(O)c(N3CC(=O)NS3(=O)=O)c(F)c2C1 (single isomer, unassigned) [Compound 291]")
83.3
>>> test_result("CC(C)(O)CCOc1ccc2cc(O)c(N3CC(=O)NS3(=O)=O)c(F)c2c1 [Compound Y]")
67.2

---

- TARGET_OR_SYSTEM: His tagged full-length PTPN1 protein (Homo sapiens)
- Sequence (P18031 with tags, fused parts or gaps): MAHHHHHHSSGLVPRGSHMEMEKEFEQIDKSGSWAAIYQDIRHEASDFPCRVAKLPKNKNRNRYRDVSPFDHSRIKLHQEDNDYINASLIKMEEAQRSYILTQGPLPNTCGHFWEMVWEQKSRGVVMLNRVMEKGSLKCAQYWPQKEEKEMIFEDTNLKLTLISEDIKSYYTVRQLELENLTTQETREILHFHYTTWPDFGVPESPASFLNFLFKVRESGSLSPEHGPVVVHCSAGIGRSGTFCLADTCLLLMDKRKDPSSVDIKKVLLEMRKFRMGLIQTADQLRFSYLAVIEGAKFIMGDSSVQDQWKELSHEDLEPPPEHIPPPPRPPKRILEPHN
pIC50: −log10 of the molar value.
RESULT_TYPE: pIC50

>>> test_result("CO[C@@H]1CCc2cc(O)c(N3CC(=O)NS3(=O)=O)c(F)c2C1 (single isomer, unassigned) [Compound 104]")
"7.00 to 8.00"
>>> test_result("C[C@@H](O)CCN[C@@H]1CCc2cc(O)c(N3CC(=O)NS3(=O)=O)c(F)c2C1 (single isomer, unassigned) [Compound 307]")
"8.00 to 9.00"
>>> test_result("CC(C)CNCC1Cc2cc(O)c(N3CC(=O)NS3(=O)=O)c(F)c2C1 (centres unmarked) [Compound 275]")
"7.00 to 8.00"
>>> test_result("COC1CCc2cc(O)c(N3CC(=O)NS3(=O)=O)c(F)c2C1 (centres unmarked) [Compound 110]")
"7.00 to 8.00"
>>> test_result("CC(C)CCN(C)C1CCc2cc(O)c(N3CC(=O)NS3(=O)=O)c(F)c2C1 (centres unmarked) [Compound 128]")
"8.00 to 9.00"
>>> test_result("O=C1CN(c2c(O)cc3c(c2F)CCC(OCC2CC2)C3)S(=O)(=O)N1 (centres unmarked) [Compound 310]")
"7.00 to 8.00"
>>> test_result("CC(C)CCOC1CCc2cc(O)c(N3CC(=O)NS3(=O)=O)c(F)c2C1 (centres unmarked) [Compound 100]")
"8.00 to 9.00"
>>> test_result("CO[C@H]1CCc2cc(O)c(N3CC(=O)NS3(=O)=O)c(F)c2C1 (single isomer, unassigned) [Compound 109]")
"7.00 to 8.00"
>>> test_result("CC(C)CCN[C@@H]1CCc2cc(O)c(N3CC(=O)NS3(=O)=O)c(F)c2C1 (single isomer, unassigned) [Compound 118]")
"8.00 to 9.00"
>>> test_result("C[Si](C)(O)CCCNC1CCc2cc(O)c(N3CC(=O)NS3(=O)=O)c(F)c2C1 (centres unmarked) [Compound 190]")
"7.00 to 8.00"
>>> test_result("O=C1CN(c2c(O)cc3c(c2F)CC(N[C@H]2C[C@@H](OC(F)(F)F)C2)CC3)S(=O)(=O)N1 (some centres unmarked) [Compound 235]")
"7.00 to 8.00"
>>> test_result("C[Si](C)(C)CCCNC1CCc2cc(O)c(N3CC(=O)NS3(=O)=O)c(F)c2C1 (centres unmarked) [Compound 189]")
"< 7.00"
>>> test_result("O=C1CN(c2c(O)cc3c(c2F)CC(NCCn2cccn2)CC3)S(=O)(=O)N1 (centres unmarked) [Compound 141]")
"7.00 to 8.00"
>>> test_result("O=C1CN(c2c(O)cc3c(c2F)CN(CC2CC4CCC2O4)CC3)S(=O)(=O)N1 (centres unmarked) [Compound 222]")
"7.00 to 8.00"
>>> test_result("CCCC1(N)CCc2cc(O)c(N3CC(=O)NS3(=O)=O)c(F)c2C1 (centres unmarked) [Compound 255]")
"7.00 to 8.00"
>>> test_result("CC(C)C(O)CNC1CCc2cc(O)c(N3CC(=O)NS3(=O)=O)c(F)c2C1 (centres unmarked) [Compound 187]")
"8.00 to 9.00"
>>> test_result("O=C1CN(c2c(O)cc3c(c2F)CC(NCCC(O)C(F)(F)F)CC3)S(=O)(=O)N1 (centres unmarked) [Compound 151]")
"7.00 to 8.00"
>>> test_result("O=C1CN(c2c(O)cc3c(c2F)C[C@@H]([C@@H]2CCNC2)CC3)S(=O)(=O)N1 (single isomer, unassigned) [Compound 136]")
"7.00 to 8.00"
>>> test_result("O=C1CN(c2c(O)cc3c(c2F)CC(NCCN2CCC2)CC3)S(=O)(=O)N1 (centres unmarked) [Compound 115]")
"7.00 to 8.00"
>>> test_result("Cc1noc(C)c1CNC1CCc2cc(O)c(N3CC(=O)NS3(=O)=O)c(F)c2C1 (centres unmarked) [Compound 287]")
"< 7.00"
